# Tested on: Z-138 cell line
# Measurement Description: Z-138 Proliferation Assay (Cell Titer Glo, 5 days)
# Type: cell-based
# Test Parameters: Homo sapiens, 120 h; Z-138 cells, 5 days, Cell Titer Glo; read-out: Proliferation EC50
pEC50: −log10 of the molar value.
Quantity Measured: pEC50

Below, 5 compounds whose answers are already recorded.
• CC(=O)N1CCC(Nc2ccnc(C(=O)NC[C@H](O)CN3CCc4ccccc4C3)c2)CC1 = > 7.00
• CC1(C)CC(Nc2cc(C(=O)NC[C@H](O)CN3CCc4ccccc4C3)ncn2)CC(C)(C)N1 = 5.00 to 6.00
• COC(CNC(=O)c1cc(NC2COC2)ncn1)CN1CCc2ccccc2C1 (centres unmarked) = < 5.30
• CS(=O)(=O)CCN1CCC(Nc2cc(C(=O)NC[C@H](O)CN3CCc4ccccc4C3)ncn2)CC1 = 6.00 to 7.00
• CO[C@H]1CC[C@@H](Nc2cc(C(=O)NC[C@H](O)CN3CCc4ccccc4C3)ncn2)CC1 = > 7.00

Input: Give a short answer stating reported pEC50 for O=C(NC[C@H](O)CN1CCc2ccccc2C1)c1cc(NC2COC2)ccn1 .
Output: 6.00 to 7.00

Input: Give a short answer stating reported pEC50 for CC(=O)N1CCN(c2cc(C(=O)NC[C@H](O)CN3CCc4ccccc4C3)cc(NC3CCC3)n2)CC1 .
Output: > 7.00

Input: Give a short answer stating reported pEC50 for O=C(NC[C@H](O)CN1CCc2ccccc2C1)c1cc(N[C@H]2CC[C@@H](C(=O)N3CCOCC3)CC2)ncn1 .
Output: 5.00 to 6.00
